Target: H1 receptor (Cavia porcellus, UniProt P31389)
Sequence (P31389 whole entry): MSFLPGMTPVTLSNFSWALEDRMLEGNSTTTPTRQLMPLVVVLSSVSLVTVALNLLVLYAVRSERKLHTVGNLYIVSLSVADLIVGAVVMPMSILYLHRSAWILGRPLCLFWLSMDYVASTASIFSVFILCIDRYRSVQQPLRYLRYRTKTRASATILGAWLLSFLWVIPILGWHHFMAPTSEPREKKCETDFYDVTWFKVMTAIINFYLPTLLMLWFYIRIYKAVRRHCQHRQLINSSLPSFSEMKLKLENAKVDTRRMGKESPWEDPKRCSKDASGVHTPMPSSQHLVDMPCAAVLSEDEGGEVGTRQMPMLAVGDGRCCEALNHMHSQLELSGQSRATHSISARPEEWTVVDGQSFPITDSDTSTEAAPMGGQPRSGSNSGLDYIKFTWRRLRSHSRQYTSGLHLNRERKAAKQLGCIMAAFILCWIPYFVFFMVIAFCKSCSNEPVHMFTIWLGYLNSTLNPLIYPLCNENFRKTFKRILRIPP
REPORTED PROPERTY: pKi
Here pKi is given on a logarithmic scale as minus log10 of the concentration in mol/L.

Worked cases, answers included:
Cc1ccc(OCCCCCN2CCN(Cc3ccc4ccccc4n3)CC2)c2c1NC(=O)C2(C)C [Example 9]: 7.87
O=c1ccc2ccc(OCCN3CCCN(Cc4ccc5ccccc5n4)CC3)cc2[nH]1 [Example 79]: 7.12
O=C1CSc2cc(OCCCN3CCN(Cc4ccc5ccccc5n4)CC3)ccc2N1 [Example 90]: 8.30
Cc1ccc(OCCCN2CCN(Cc3nc4ccccc4n3C)CC2)c2c1NC(=O)C2(C)C [Example 26]: 7.44
CC1(C)C(=O)Nc2ccc(OCCN3CCCN(Cc4ccc5ccccc5n4)CC3)cc21 [Example 50, dimaleate]: 6.34
Cc1ccc(OCCN2CCCN(Cc3ccc4ccccc4n3)CC2)c2c1NC(=O)CC2 [Example 61]: 8.33

We next turn to a different compound, shown below.
q: Would you please give the reported pKi of Cc1ccc(OCCCN2CCCN(Cc3ccc4ccccc4n3)CC2)c2c1NC(=O)CC2 [Example 60] with H1 receptor (Cavia porcellus, UniProt P31389)?
a: 8.26
